src = ChEMBL document CHEMBL1124788

Experimental Target: Serotonin 3 receptor (5HT3) (Mus musculus) (UniProt Q9JHJ5+P23979)
Sequence (P23979 whole entry, looked up): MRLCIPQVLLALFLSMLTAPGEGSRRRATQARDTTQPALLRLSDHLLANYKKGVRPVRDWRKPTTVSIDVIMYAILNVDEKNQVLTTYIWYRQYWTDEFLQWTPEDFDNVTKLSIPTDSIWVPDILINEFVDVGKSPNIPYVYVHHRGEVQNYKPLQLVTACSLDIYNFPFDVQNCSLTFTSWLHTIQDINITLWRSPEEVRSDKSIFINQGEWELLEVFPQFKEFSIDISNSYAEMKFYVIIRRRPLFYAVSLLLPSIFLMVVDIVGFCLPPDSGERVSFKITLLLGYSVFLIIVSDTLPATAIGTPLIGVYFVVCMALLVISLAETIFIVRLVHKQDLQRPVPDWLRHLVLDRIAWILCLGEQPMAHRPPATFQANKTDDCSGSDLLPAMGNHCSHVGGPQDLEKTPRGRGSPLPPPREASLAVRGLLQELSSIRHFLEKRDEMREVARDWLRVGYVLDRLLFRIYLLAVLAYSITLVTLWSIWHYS
Sequence (Q9JHJ5 whole entry, looked up): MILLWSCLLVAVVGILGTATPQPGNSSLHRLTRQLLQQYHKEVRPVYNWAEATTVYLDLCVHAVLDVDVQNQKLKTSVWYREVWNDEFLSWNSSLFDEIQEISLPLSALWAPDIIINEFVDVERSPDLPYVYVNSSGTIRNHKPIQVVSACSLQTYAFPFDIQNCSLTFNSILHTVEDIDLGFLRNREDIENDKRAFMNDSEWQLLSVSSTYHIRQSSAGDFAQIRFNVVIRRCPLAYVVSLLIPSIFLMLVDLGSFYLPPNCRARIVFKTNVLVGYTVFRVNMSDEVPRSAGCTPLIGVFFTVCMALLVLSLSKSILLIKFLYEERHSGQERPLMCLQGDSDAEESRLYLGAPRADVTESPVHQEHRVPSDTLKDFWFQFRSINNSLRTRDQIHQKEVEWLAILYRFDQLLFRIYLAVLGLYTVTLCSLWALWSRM
Measurement Description: Binding affinity towards 5-hydroxytryptamine 3 receptor was determined by using [3H]-ICS 205-930 as radioligand in mouse N1E 115 cells
Format: cell-based
Measured Property: pKD
Give bare numbers.

molecule=CN1[C@@H]2CC[C@H]1C[C@@H](OC(=O)c1c[nH]c3ccccc13)C2 experimental_target="Serotonin 3 receptor (5HT3) (Mus musculus) (UniProt Q9JHJ5+P23979)" observed=9.09
molecule="Cc1nccn1CC1CCc2c(c3ccccc3n2C)C1=O (stereo unspecified)" experimental_target="Serotonin 3 receptor (5HT3) (Mus musculus) (UniProt Q9JHJ5+P23979)" observed=7.9
molecule=c1ccc2nc(N3CCNCC3)ccc2c1 experimental_target="Serotonin 3 receptor (5HT3) (Mus musculus) (UniProt Q9JHJ5+P23979)" observed=8.69
molecule="O=C(OC1CC2CCC(C1)N2)c1c[nH]c2ccccc12 (stereo unspecified)" experimental_target="Serotonin 3 receptor (5HT3) (Mus musculus) (UniProt Q9JHJ5+P23979)" observed=9.14
molecule="CCN(CC)CCNC(=O)c1cc(Cl)c(N)cc1OC [METOCLOPRAMIDE]" experimental_target="Serotonin 3 receptor (5HT3) (Mus musculus) (UniProt Q9JHJ5+P23979)" observed=6.65

Now let's try a different one.
Problem: Returns the measured pKD for the input molecule. Input: CN1[C@@H]2CC[C@H]1C[C@@H](OC(=O)c1cc(Cl)cc(Cl)c1)C2
Result: 8.21
